ENDPOINT_LABEL: melting point

Item "COc1c(-c2ccc3cc(NS(C)(=O)=O)ccc3c2)cc(NC(N)=O)cc1C(C)(C)C" has what recorded melting point?
> 300 °C

Item N#Cc1ccc2c(c1)C1(COc3cc4c(cc31)OCCO4)C(=O)N2Cc1ccccn1 (centres undefined) has what recorded melting point?
198 to 199 °C

Item "CS(=O)(=O)c1ccc(-c2cc(Br)c3cnc(Nc4ccc(N5CCOCC5)cc4)nn23)cc1" has what recorded melting point?
242 to 244 °C

Item "COC(=O)C(=O)Nc1cccc(OCCCBr)c1" has what recorded melting point?
90 to 91 °C

Item "CN1CCC(N(C2CC2)S(=O)(=O)c2ccc(Nc3nccc(Nc4ccc(F)cc4)n3)cc2)CC1" has what recorded melting point?
218 °C

Item "CCc1c(CCNC(=O)CCCC(=O)NCCc2ccc(OC)c(OC)c2CC)ccc(OC)c1OC" has what recorded melting point?
171 to 173 °C

Item "O=c1c2cc(F)c(N3CCCC3)nc2n(-c2ccc(F)cc2F)c(=O)n1O" has what recorded melting point?
189 to 191 °C

Item "Oc1cc(O)cc(/C=C/c2ccccc2)c1" has what recorded melting point?
157 to 158 °C

Item CC(Cc1cccnc1)(NC(=O)OC1C2CC3CC(C2)CC1C3)C(=O)NCCc1ccccc1 (centres undefined) has what recorded melting point?
167 to 169 °C

Item FC(F)(F)Oc1ccc(C2N=C(Nc3cccc(-c4cncnc4)c3)n3ccnc32)cc1 (centres undefined) has what recorded melting point?
120 to 130 °C

Item "O=C1Cc2ccccc2C=Cc2cc(Br)ccc21" has what recorded melting point?
121 to 123 °C

Item "COc1ccc2nc3ccc(C(N)=O)cn3c(=O)c2c1" has what recorded melting point?
> 310 °C

Item "CCOC(=O)CCc1cn(Cc2ccc(OCc3nc(-c4ccco4)oc3C)cc2)nc1O" has what recorded melting point?
145 to 146 °C

Item "CNc1ncn(C)c1C(=O)NCc1ccccc1" has what recorded melting point?
110 to 111 °C

Item "Cc1cccc(NC(=O)NCc2ccc(-c3n[nH]c4c3Cc3cc(CN5CCOCC5)ccc3-4)s2)c1" has what recorded melting point?
158 to 161 °C

Item C=CCOC(=O)C(C(=O)OCC=C)=C1SC(O)C(O)S1 (centres undefined) has what recorded melting point?
81.2 °C

Item COC(=O)C1CC(O)CN1C(=O)c1cc(OC)c(OC)c(OC)c1 (centres undefined) has what recorded melting point?
126 °C

Item "c1ccc(C2=NN=C(c3ccccc3)NN2)cc1" has what recorded melting point?
177 to 178 °C

Item "O=C(O)C(=O)N1CN(C(=O)c2c(F)cccc2F)C(=O)N(c2ccc(Oc3ccc(C(F)(F)F)cc3Cl)cc2F)C1" has what recorded melting point?
67 to 72 °C

Item NC(=O)CN1C(=O)[C@H](NC(=O)c2cc3ccccc3[nH]2)[C@H](c2ccccc2)Sc2cc(Cl)ccc21 (relative stereo) has what recorded melting point?
174 to 178 °C

Item "Cc1sc(S(C)(=O)=O)nc1-c1ccccc1" has what recorded melting point?
114 to 115 °C

Item O=C(Nc1ccc(I)cc1)N[C@H]1C[C@H](C(=O)O)Nc2cc(Cl)cc(Cl)c21 (relative stereo) has what recorded melting point?
224 to 226 °C

Item "Cc1nc(N2CCN(Cc3ccccc3)CC2)ncc1C(=O)O" has what recorded melting point?
192 °C

Item "OCc1cc2cc(-c3ccccc3)ccc2o1" has what recorded melting point?
134 to 135 °C

Item "COc1cc(OC)cc(-c2ncn(CCO)c2-c2ccc(OC)c(F)c2)c1" has what recorded melting point?
202 to 204 °C

Item COCC1CN(c2ccc(C3CCNCC3)cc2)C(=O)O1 (racemic) has what recorded melting point?
161 to 163 °C

Item "CSc1ccc(-c2c(C)nnc(Cl)c2-c2ncc(Cl)cc2Cl)nc1" has what recorded melting point?
163 °C

Item "Cc1oc(-c2ccccc2)nc1COc1ccc(C=C2SC(=O)NC2=O)cc1" has what recorded melting point?
225 to 226 °C

Item "COc1cc(COc2nn(-c3ccccc3)cc2/C=C/c2nc(C(=O)O)cs2)ccc1OCc1nc(-c2ccco2)oc1C" has what recorded melting point?
170 to 172 °C

Item "O=C(Cl)c1ccc(Cl)cc1Sc1ccccc1" has what recorded melting point?
94 to 96 °C

Item Cc1ncsc1C(C)(O)c1ccco1 (centres undefined) has what recorded melting point?
127 to 128 °C

Item "Cc1ccc(O)c(C)c1C=O" has what recorded melting point?
159 to 165 °C

Item "C[C@H](NS(=O)(=O)C12CC3CC(CC(C3)C1)C2)C(=O)N1CCC[C@H]1C(=O)Nc1ccccc1" has what recorded melting point?
138 to 141 °C

Item "C=C(C)CN1CCCC(C(=O)O)=Cc2cc(-c3ccc(OCCOCCCC)cc3)ccc21" has what recorded melting point?
132 to 134 °C

Item NCCON=C1c2ccccc2C2CC2c2ccccc21 (centres undefined) has what recorded melting point?
133 to 134 °C

Item "CCSc1ccnc2sc(C(N)=O)c(N)c12" has what recorded melting point?
230 to 235 °C

Item "CC(C)(C)[N+]([O-])=Cc1ccccc1OCc1ccccc1" has what recorded melting point?
111 °C

Item "O=C(O)c1ccc2c(c1)N(C1CC1)CNS2(=O)=O" has what recorded melting point?
243 to 245 °C

Item "COc1ccc2c(c1)c1c3c(c(-c4c(Cl)cccc4Cl)cc1n2CCC(=O)O)C(=O)NC3=O" has what recorded melting point?
203 to 209 °C
